# Target entity: HCV polymerase (NS5B) type 1a (Hepatitis C virus genotype 1a)
# Construct: made in house; host or cells: Escherichia coli (by the 'similar method' of the 1b enzyme)
# Protocol summary: Assay of enzyme (HCV polymerase) inhibitory activity, type 1a enzyme
# Assay type: biochemical, HCV type 1a (cloned from the blood of patients)
# Measurement conditions: HCV polymerase inhibitory activity (IC50), 1a, type 1a enzyme 1.5 μg/ml, 25° C., 60 min
pIC50: −log10 of the molar value.
Metric: pIC50

Inquiry: Note pIC50 for the molecule shown: CC(C)c1ccc(CNC(=O)[C@H]2CN(C(=O)Nc3ccc(C(=O)O)cc3)CCN2S(=O)(=O)c2ccc(C(F)(F)F)cc2)cc1 [Example 285]
Reply text: 6.00 to 7.00

Inquiry: Give recorded pIC50. CC(=O)N1CCN(S(=O)(=O)c2ccc(C(C)C)cc2)C(C(=O)NCc2ccc(Br)cc2)C1 (stereo not drawn) [Example 54]
Reply text: < 6.00

Inquiry: Specify pIC50 for CCC(F)(F)c1ccc(CNC(=O)[C@H]2CN(C(=O)Nc3ccnc(C(N)=O)c3)CCN2S(=O)(=O)c2ccc(OC(F)(F)F)cc2)cc1 [Example 503] and stop.
Reply text: 6.00 to 7.00

Inquiry: // fetch pIC50 given entry CCC(F)(F)c1ccc(CNC(=O)[C@H]2CN(C(=O)Nc3nnc(C(=O)N4CCOCC4)s3)CCN2S(=O)(=O)c2ccc(OC(F)(F)F)cc2)cc1 [Example 497]
Reply text: < 6.00

Inquiry: In one line, give reported pIC50 of the entry CC(C)c1ccc(CNC(=O)[C@H]2CN(c3cc(C(=O)O)n(C)n3)CCN2S(=O)(=O)c2ccc(C(F)(F)F)cc2)cc1 [Example 445] .
Reply text: 6.00 to 7.00

Inquiry: Please look at this molecule and report its pIC50: CCCc1ccc(CNC(=O)[C@H]2CN(c3ccc(C(=O)O)nn3)CCN2S(=O)(=O)c2ccc(OC(F)(F)F)cc2)cc1 [Example 417]
Reply text: > 7.00

###

# Target entity: HCV polymerase (NS5B) type 1a (Hepatitis C virus genotype 1a)
# Construct: made in house; host or cells: Escherichia coli (by the 'similar method' of the 1b enzyme)
# Protocol summary: Assay of enzyme (HCV polymerase) inhibitory activity, type 1a enzyme
# Format: biochemical, HCV type 1a (cloned from the blood of patients)
# Measurement conditions: HCV polymerase inhibitory activity IC50, 1a, type 1a enzyme
Where a name gives a salt, the structure may show the parent alone.
Metric: IC50

Inquiry: Enter measured IC50, system HCV polymerase (NS5B) type 1a (Hepatitis C virus genotype 1a), for the molecule shown: CCC(F)(F)c1ccc(CNC(=O)[C@H]2CN(c3cnc4cncnc4n3)CCN2S(=O)(=O)c2ccc(-c3nc(=O)o[nH]3)cc2)cc1 [Example 759]
Reply text: < 100 nM

Inquiry: Identify measured IC50 obtained with HCV polymerase (NS5B) type 1a (Hepatitis C virus genotype 1a) for O=C(NCc1ccc(OC(F)(F)F)cc1)[C@H]1CN(c2ccc(=O)[nH]c2)CCN1S(=O)(=O)c1ccc(OC(F)(F)F)cc1 [Example 924, hydrochloride] .
Reply text: 100 to 1000 nM

Inquiry: Give reported IC50 for O=C(O)c1ncc2sc(N3CCN(S(=O)(=O)c4ccc(OC(F)(F)F)cc4)[C@@H](C(=O)NCc4ccc(OC(F)(F)F)cc4)C3)nc2n1 [Example 1033] (HCV polymerase (NS5B) type 1a (Hepatitis C virus genotype 1a))
Reply text: < 100 nM

Inquiry: # assay system HCV polymerase (NS5B) type 1a (Hepatitis C virus genotype 1a): give IC50 of O=C(O)c1cnc(N2CCN(S(=O)(=O)c3ccc(N4CCCC4)cc3)[C@@H](C(=O)NCc3ccc(OC(F)(F)F)cc3)C2)cn1 [Example 788]
Reply text: < 100 nM

Inquiry: Please tell me the measured IC50 for O=C(NCc1ccc(OC(F)(F)F)cc1)[C@H]1CN(c2nc3nc(CCO)ncc3s2)CCN1S(=O)(=O)c1ccc(OC(F)(F)F)cc1 [Example 1098] ; system: HCV polymerase (NS5B) type 1a (Hepatitis C virus genotype 1a).
Reply text: < 100 nM

Inquiry: GET IC50 | system: HCV polymerase (NS5B) type 1a (Hepatitis C virus genotype 1a) | item: C#Cc1ncc2sc(N3CCN(S(=O)(=O)c4ccc(OC(F)(F)F)cc4)[C@@H](C(=O)NCc4ccc(OC(F)(F)F)cc4)C3)nc2n1 [Example 995]
Reply text: < 100 nM

Inquiry: // fetch IC50 for CCCc1ccc(CNC(=O)[C@H]2CN(c3cnc4c(C(=O)O)cccc4n3)CCN2S(=O)(=O)c2ccc(OC(F)(F)F)cc2)cc1 [Example 817] ; system: HCV polymerase (NS5B) type 1a (Hepatitis C virus genotype 1a)
Reply text: < 100 nM

Inquiry: Given O=C(NCc1ccc(OC(F)(F)F)cc1)[C@H]1CN(c2nc3ncncc3s2)CCN1S(=O)(=O)c1ccc(C(F)(F)F)cc1 [Example 886] , report its IC50 on HCV polymerase (NS5B) type 1a (Hepatitis C virus genotype 1a).
Reply text: < 100 nM

Inquiry: Look up HCV polymerase (NS5B) type 1a (Hepatitis C virus genotype 1a) data: IC50 of CCc1ccc(S(=O)(=O)N2CCN(c3cnc4cncc(C(=O)O)c4n3)C[C@@H]2C(=O)NCc2ccc(C(C)(C)CC)cc2)cc1 [Example 854] , then report it.
Reply text: < 100 nM

Inquiry: Using HCV polymerase (NS5B) type 1a (Hepatitis C virus genotype 1a) as the test system, report measured IC50 of COCC1(c2ccc(CNC(=O)[C@H]3CN(c4nc5cn[nH]c(=O)c5s4)CCN3S(=O)(=O)c3ccc(OC(F)(F)F)cc3)cc2)CC1 [Example 882] .
Reply text: 100 to 1000 nM

Inquiry: Fetch value of IC50 on HCV polymerase (NS5B) type 1a (Hepatitis C virus genotype 1a) for CCOC(=O)CN(C)c1ccc(S(=O)(=O)N2CCN(c3cnc4cnccc4n3)C[C@@H]2C(=O)NCc2ccc(OC(F)(F)F)cc2)cc1 [Example 764] .
Reply text: < 100 nM

Inquiry: Name the value of IC50 reported for CCC(F)(F)c1ccc(CNC(=O)[C@H]2CN(c3nc4nc(C)[nH]c(=O)c4s3)CCN2S(=O)(=O)c2ccc(OC(F)(F)F)cc2)cc1 [Example 911] when tested on HCV polymerase (NS5B) type 1a (Hepatitis C virus genotype 1a).
Reply text: < 100 nM

Inquiry: # assay system HCV polymerase (NS5B) type 1a (Hepatitis C virus genotype 1a): give IC50 of CC(=O)N1CCN(S(=O)(=O)c2ccc(OC(F)(F)F)cc2)[C@@H](C(=O)NCCCc2ccc(O)cc2)C1 [Example 717]
Reply text: > 1000 nM

Inquiry: Provide measured IC50 on HCV polymerase (NS5B) type 1a (Hepatitis C virus genotype 1a) for O=C(NCc1ccc(OC(F)(F)F)cc1)[C@H]1CN(c2nc3nc(CC4CC4)ncc3s2)CCN1S(=O)(=O)c1ccc(OC(F)(F)F)cc1 [Example 992] please.
Reply text: < 100 nM

Inquiry: Supply IC50 measured with HCV polymerase (NS5B) type 1a (Hepatitis C virus genotype 1a) for O=C(NCc1ccc(OC(F)(F)F)cc1)[C@H]1CN(c2nc3c(CO)n[nH]c(=O)c3s2)CCN1S(=O)(=O)c1ccc(OC(F)(F)F)cc1 [Example 870] .
Reply text: < 100 nM

Inquiry: Tell me its IC50 on HCV polymerase (NS5B) type 1a (Hepatitis C virus genotype 1a): CCC(F)(F)c1ccc(CNC(=O)[C@H]2CN(c3cnc4cncc(C(=O)O)c4n3)CCN2S(=O)(=O)c2ccc(OC(F)(F)F)cc2)cc1 [Example 836]
Reply text: < 100 nM

Inquiry: Identify measured IC50 obtained with HCV polymerase (NS5B) type 1a (Hepatitis C virus genotype 1a) for O=C(NCc1ccc(OC(F)(F)F)cc1)[C@H]1CN(c2nc3cnnc(Cl)c3s2)CCN1S(=O)(=O)c1ccc(C(F)(F)F)cc1 [Example 896] .
Reply text: < 100 nM

Inquiry: Write IC50 of CCCc1ccc(CNC(=O)[C@H]2CN(c3ccc(C(=O)OC(C)(C)C)s3)CCN2S(=O)(=O)c2ccc(OC(F)(F)F)cc2)cc1 [Example 728] ; system used: HCV polymerase (NS5B) type 1a (Hepatitis C virus genotype 1a)
Reply text: 100 to 1000 nM

Inquiry: State IC50 on HCV polymerase (NS5B) type 1a (Hepatitis C virus genotype 1a). Entry: Cc1cc(=O)nc2sc(N3CCN(S(=O)(=O)c4ccc(OC(F)(F)F)cc4)[C@@H](C(=O)NCc4ccc(OC(F)(F)F)cc4)C3)nn12 [Example 1019]
Reply text: < 100 nM

Inquiry: State measured IC50 of the molecule CCC(F)(F)c1ccc(CNC(=O)[C@H]2CN(c3cnc4cnccc4n3)CCN2S(=O)(=O)c2ccc(C(C)(C)C)cc2)cc1 [Example 714] with HCV polymerase (NS5B) type 1a (Hepatitis C virus genotype 1a).
Reply text: < 100 nM

Inquiry: State the measured IC50 (HCV polymerase (NS5B) type 1a (Hepatitis C virus genotype 1a)) of NC(=O)c1cncc2ncc(N3CCN(S(=O)(=O)c4ccc(OC(F)(F)F)cc4)[C@@H](C(=O)NCc4ccc(OC(F)(F)F)cc4)C3)nc12 [Example 807]
Reply text: < 100 nM

Inquiry: Please report IC50 with HCV polymerase (NS5B) type 1a (Hepatitis C virus genotype 1a) for item CCCc1ccc(CNC(=O)[C@H]2CN(c3cnc(C(=O)O)cn3)CCN2S(=O)(=O)c2ccc(-c3ccccc3)cc2)cc1 [Example 701] .
Reply text: < 100 nM

Inquiry: Give HCV polymerase (NS5B) type 1a (Hepatitis C virus genotype 1a) IC50 for the following molecule: CCCc1ccc(CNC(=O)[C@H]2CN(c3nc4cc(C(=O)OC(C)(C)C)ncc4s3)CCN2S(=O)(=O)c2ccc(OC(F)(F)F)cc2)cc1 [Example 1081]
Reply text: < 100 nM

Inquiry: Write down measured IC50 (HCV polymerase (NS5B) type 1a (Hepatitis C virus genotype 1a)) for this molecule. O=C(O)c1cccc2nc(N3CCN(S(=O)(=O)c4ccc(OC(F)(F)F)cc4)[C@@H](C(=O)NCc4ccc(OC(F)(F)F)cc4)C3)cnc12 [Example 780]
Reply text: 100 to 1000 nM
